inhibition at 10 µM values for the compounds below.
- System: PC-3
- Assay Text: NCI growth inhibition (SRB) assay
- Format: cell-based
- Assay Conditions: Homo sapiens, PC-3, Prostate Cancer, single dose 10 µM, 48 h, read-out: Percent Growth Inhibition (GI)
Measurement Type: inhibition at 10 µM (%)

INSERT INTO measurements (compound, assay_value) VALUES
  ('COc1ccc(Oc2nc(Nc3ccc(N4CCOCC4)cc3)ncc2NC(=O)c2cc(OC)c(OC)c(OC)c2)cc1 [5c]', 11.6),
  ('COc1ccc(Oc2nc(Nc3ccc(N4CCOCC4)cc3)ncc2NC(=O)c2ccc3c(c2)OCO3)cc1 [5a]', 11.7),
  ('CCOc1cc(OCC)cc(C(=O)Nc2cnc(Nc3ccc(N4CCOCC4)cc3)nc2Oc2ccc(OC)cc2)c1 [5d]', 27.3);

----------
- Target Or System: LCK (Homo sapiens, UniProt P06239)
- Sequence (P06239 whole entry): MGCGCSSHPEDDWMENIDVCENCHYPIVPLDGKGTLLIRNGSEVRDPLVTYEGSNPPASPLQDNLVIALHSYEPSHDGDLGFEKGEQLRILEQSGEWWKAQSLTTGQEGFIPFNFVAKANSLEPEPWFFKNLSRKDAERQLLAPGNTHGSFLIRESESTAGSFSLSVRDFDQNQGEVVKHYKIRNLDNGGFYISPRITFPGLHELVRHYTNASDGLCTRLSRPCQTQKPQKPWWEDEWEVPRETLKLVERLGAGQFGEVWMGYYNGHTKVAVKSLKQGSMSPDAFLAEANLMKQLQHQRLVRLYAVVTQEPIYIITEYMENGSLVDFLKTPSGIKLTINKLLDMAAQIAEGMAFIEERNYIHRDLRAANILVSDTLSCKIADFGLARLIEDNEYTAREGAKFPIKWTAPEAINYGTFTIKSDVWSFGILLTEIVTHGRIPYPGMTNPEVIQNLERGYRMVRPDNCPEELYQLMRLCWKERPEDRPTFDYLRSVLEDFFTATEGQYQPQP
Measurement Type: IC50 (nM)

INSERT INTO measurements (sample_smiles, unit_tag, assay_value) VALUES
  ('COc1ccc(Oc2nc(Nc3ccc(N4CCOCC4)cc3)ncc2NC(=O)c2cccc(SC)c2)cc1', 'nM', 87.7);

----------
- Tested on: RXF 393
- Assay Text: NCI growth inhibition (SRB) assay
- Type: cell-based
- Assay Conditions: Homo sapiens, RXF 393, Renal Cancer, single dose 10 µM, 48 h, read-out: Percent Growth Inhibition (GI)
The following molecules are shown together with reported inhibition at 10 µM values.
Measurement Type: inhibition at 10 µM (%)

INSERT INTO results (sample_smiles, unit_tag, assay_value) VALUES
  ('COc1ccc(Oc2nc(Nc3ccc(N4CCOCC4)cc3)ncc2NC(=O)Cc2cc(OC)cc(OC)c2)cc1', '%', -8.16),
  ('COc1ccc(Oc2nc(Nc3ccc(N4CCOCC4)cc3)ncc2NC(=O)c2ccnc([N+](=O)[O-])c2)cc1', '%', -0.36),
  ('COc1ccc(Oc2nc(Nc3ccc(N4CCOCC4)cc3)ncc2NC(=O)c2ccc(OC)c(OC)c2)cc1', '%', 20.4),
  ('CCOc1cc(OCC)cc(C(=O)Nc2cnc(Nc3ccc(N4CCOCC4)cc3)nc2Oc2ccc(OC)cc2)c1', '%', 27.5),
  ('COc1ccc(Oc2nc(Nc3ccc(N4CCOCC4)cc3)ncc2NC(=O)c2cc(OC)c(OC)c(OC)c2)cc1', '%', 50.6),
  ('COc1ccc(Oc2nc(Nc3ccc(N4CCOCC4)cc3)ncc2NC(=O)c2ccc3c(c2)OCO3)cc1', '%', 50.5);

----------
- Tested on: SF-539
- Assay Text: NCI growth inhibition (SRB) assay
- Format: cell-based
- Assay Conditions: Homo sapiens, SF-539, CNS Cancer, single dose 10 µM, 48 h, read-out: Percent Growth Inhibition (GI)
Measurement Type: inhibition at 10 µM (%)

INSERT INTO results (sample_smiles, unit_tag, assay_value) VALUES
  ('COc1ccc(Oc2nc(Nc3ccc(N4CCOCC4)cc3)ncc2NC(=O)c2ccc3c(c2)OCO3)cc1', '%', 4.73),
  ('COc1ccc(Oc2nc(Nc3ccc(N4CCOCC4)cc3)ncc2NC(=O)Cc2cc(OC)cc(OC)c2)cc1', '%', 2.09),
  ('COc1ccc(Oc2nc(Nc3ccc(N4CCOCC4)cc3)ncc2NC(=O)c2ccnc([N+](=O)[O-])c2)cc1', '%', 7.72),
  ('COc1ccc(Oc2nc(Nc3ccc(N4CCOCC4)cc3)ncc2NC(=O)c2ccc(OC)c(OC)c2)cc1', '%', -3.17),
  ('COc1ccc(Oc2nc(Nc3ccc(N4CCOCC4)cc3)ncc2NC(=O)c2cc(OC)c(OC)c(OC)c2)cc1', '%', 7.64),
  ('CCOc1cc(OCC)cc(C(=O)Nc2cnc(Nc3ccc(N4CCOCC4)cc3)nc2Oc2ccc(OC)cc2)c1', '%', 8.01),
  ('COc1ccc(Oc2nc(Nc3ccc(N4CCOCC4)cc3)ncc2NC(=O)c2cccc(SC)c2)cc1', '%', 21.1);
